- Test system: Bacillus subtilis
- Measurement notes: Antibacterial activity against Bacillus subtilis 1046 in presence of 100 mM Ca2+
- Type: functional
Readout kind: MIC (µg/mL)
Express it in µg/mL; write the number only.

As a guide, the following entries are already answered.
Molecule: CCCCCCCCCC(=O)N[C@@H](Cc1c[nH]c2ccccc12)C(=O)N[C@@H](CC(N)=O)C(=O)N[C@@H](CC(=O)O)C(=O)N[C@H]1COC(=O)[C@H](Cc2ccc(O)cc2)NC(=O)[C@H](CCC(=O)O)NC(=O)[C@@H](CO)NC(=O)CNC(=O)[C@H](CC(=O)O)NC(=O)[C@@H](C)NC(=O)[C@H](CC(=O)O)NC(=O)[C@H](CCCN)NC(=O)CNC1=O
Target desc: Bacillus subtilis
MIC (µg/mL): 1.3
//
Molecule: CCCCCCCCCC(=O)N[C@@H](Cc1c[nH]c2ccccc12)C(=O)N[C@@H](CC(N)=O)C(=O)N[C@@H](CC(=O)O)C(=O)N[C@H]1COC(=O)[C@H](Cc2c[nH]c3ccccc23)NC(=O)[C@H](CCC(=O)O)NC(=O)[C@@H](CO)NC(=O)CNC(=O)[C@H](CC(=O)O)NC(=O)[C@@H](C)NC(=O)[C@H](CC(=O)O)NC(=O)[C@H](CCCN)NC(=O)CNC1=O
Target desc: Bacillus subtilis
MIC (µg/mL): 1.5

Using the record for CCCCCCCCCC(=O)N[C@@H](Cc1c[nH]c2ccccc12)C(=O)N[C@H](CC(N)=O)C(=O)N[C@@H](CC(=O)O)C(=O)N[C@@H]1C(=O)NCC(=O)N[C@@H](CCCN)C(=O)N[C@@H](CC(=O)O)C(=O)N[C@H](C)C(=O)N[C@@H](CC(=O)O)C(=O)NCC(=O)N[C@H](CO)C(=O)N[C@@H]([C@H](C)CC(=O)O)C(=O)N[C@@H](CC(=O)c2ccccc2N)C(=O)O[C@@H]1C , report its MIC.
0.5

Using the record for CCCCCCCCCC(=O)N[C@@H](Cc1c[nH]c2ccccc12)C(=O)NC(CC(N)=O)C(=O)N[C@@H](CC(=O)O)C(=O)N[C@@H]1C(=O)NCC(=O)N[C@@H](CCCN)C(=O)N[C@@H](CC(=O)O)C(=O)N[C@H](C)C(=O)N[C@@H](CC(=O)O)C(=O)NCC(=O)N[C@H](CO)C(=O)N[C@@H](C(C)CC(=O)O)C(=O)N[C@@H](CC(=O)c2ccccc2N)C(=O)O[C@@H]1C (single isomer, unassigned) [DAPTOMYCIN] , report its MIC.
5
